B1: TPR t1 (parent)
chain: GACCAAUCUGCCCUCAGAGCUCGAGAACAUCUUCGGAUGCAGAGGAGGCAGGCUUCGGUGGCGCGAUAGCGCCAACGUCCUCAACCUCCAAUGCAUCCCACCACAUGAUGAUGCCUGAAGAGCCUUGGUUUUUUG

Variants of: B1
Procedure text: polymerase ribozyme fitness, log enrichment relative to wild type (log ratio); higher = more active; in vitro selection for triplet polymerase activity
Rule: polymerase ribozyme fitness (log ratio) under -2 gives FALSE, otherwise TRUE.

Lookup: Check this variant for polymerase ribozyme fitness (log ratio) at or above -2: A50U G63C U112A A118G
Found: FALSE

Lookup: For this variant, is measured polymerase ribozyme fitness (log ratio) -2 or higher? U7G A16U A43U C49U C70A C89A U116G
Found: FALSE

Lookup: Check this variant for polymerase ribozyme fitness (log ratio) at or above -2: G36A A43C C115A
Found: FALSE

Lookup: Would you say G51U G117U shows polymerase ribozyme fitness (log ratio) at minimum -2?
Found: FALSE

Lookup: Is polymerase ribozyme fitness (log ratio) for G44U C72U C115U U129G at or above -2?
Found: FALSE

Lookup: Does the reported polymerase ribozyme fitness (log ratio) for A46G A50G U87C fall at or above the -2 mark?
Found: TRUE

Lookup: Could you tell me if the measured polymerase ribozyme fitness (log ratio) of U59A C89A reaches -2 or more?
Found: TRUE

Lookup: Does polymerase ribozyme fitness (log ratio) meet or surpass -2 for C15U C56A G69C U78C A83G U112C U116A ?
Found: FALSE

Lookup: Hi team, for A29G G42C G45C C49A U106A , is the recorded polymerase ribozyme fitness (log ratio) at or above -2?
Found: FALSE

Lookup: Given C3A G61C , state whether its polymerase ribozyme fitness (log ratio) is at least -2.
Found: FALSE

Lookup: Could you tell me if the measured polymerase ribozyme fitness (log ratio) of A2U C115A reaches -2 or more?
Found: FALSE

Lookup: Decide: is the reported value of polymerase ribozyme fitness (log ratio) for U9G A46U G48U C76U C124U equal to or greater than -2?
Found: TRUE

Lookup: Decide: is the reported value of polymerase ribozyme fitness (log ratio) for C56G A74U C86A equal to or greater than -2?
Found: FALSE

Lookup: Check if polymerase ribozyme fitness (log ratio) >= -2 (inclusive). Item: C56A C73U C97U A103U G120C
Found: FALSE

Lookup: Could you please find out whether C31U G47U U112C G120C has polymerase ribozyme fitness (log ratio) that meets -2 or exceeds it?
Found: FALSE

Lookup: Is it the case that C8U G52A A74U U112C has polymerase ribozyme fitness (log ratio) reaching or exceeding -2?
Found: TRUE

Lookup: Kindly determine if polymerase ribozyme fitness (log ratio) recorded for U7A C31U G60A is above or exactly -2.
Found: FALSE

Lookup: Entry C31A C115U : is its polymerase ribozyme fitness (log ratio) no less than -2?
Found: FALSE
